measured-on: Recombinant human BRD4 containing dual bromodomains (BRD4-BD12 (1-477)) (Homo sapiens, UniProt O60885)
Construct: Recombinant human BRD4 containing dual bromodomains (BRD4-BD12 (1-477))
experiment-summary: BRD4 Alphascreen binding assay
Experimental: BRD4 Alphascreen Binding Assay Binding of compounds of Formula (I) with BRD4 was assessed using Alphascreen binding assay. The inhibition of the interaction between BRD4 and its acetylated target protein was measured quantitatively using recombinant BRD4 protein, an acetylated Histone 4 peptide, and AlphaScreen™ technology. […] The close proximity allows the singlet oxygen produced by laser excitation of the donor beads to reach the acceptor beads and generate a luminescence signal. […]
result-type: IC50

Returns the measured IC50 for the input compound. Input: Cc1noc(C)c1-c1cnc2c(c1)c(-c1ccc(C(=O)O)cc1OC(F)(F)F)c(C)n2-c1ccccn1
1 to 8 µM

Returns the measured IC50 for the input compound. Input: Cc1noc(C)c1-c1cnc2c(c1)c(-c1ccc(C(=O)O)cc1OC1COC1)cn2[C@@H](C)c1ccccn1
8 to 1000 µM

Returns the measured IC50 for the input compound. Input: Cc1noc(C)c1-c1cnc2c(c1)c(-c1ccc(C(C)(C)C(=O)O)cc1)cn2C(c1ccccn1)C1CCCC1 (stereo not shown)
1 to 8 µM

Returns the measured IC50 for the input compound. Input: CCOc1cc(C(=O)O)nc(OCC)c1-c1cn(-c2cnc(C3CC3)nc2)c2ncc(-c3c(C)noc3C)cc12
1 to 8 µM

====

measured-on: Recombinant human BRD4 containing dual bromodomains (BRD4-BD12 (1-477)) (Homo sapiens, UniProt O60885)
Construct: Recombinant human BRD4 containing dual bromodomains (BRD4-BD12 (1-477))
experiment-summary: BRD4 Alphascreen binding assay
Give measured IC50 for each item. Keep answers brief.

Returns the measured IC50 for the input molecule. Input: Cc1noc(C)c1-c1cnc2c(c1)c(-c1ccc(C(=O)O)c(Cl)c1)cn2C(c1ccccn1)C1CCCC1 (stereo not shown)
1 to 8 µM

Returns the measured IC50 for the input molecule. Input: CCOc1cc(C(=O)OC)nc(OCC)c1-c1cn(-c2ccc(F)cc2F)c2ncc(-c3c(C)noc3C)cc12
8 to 1000 µM

Returns the measured IC50 for the input molecule. Input: Cc1noc(C)c1-c1cnc2c(c1)c(-c1ccc(-c3nn[nH]n3)cc1)cn2C(c1ccccn1)C1CCCC1 (stereo not shown)
8 to 1000 µM

Returns the measured IC50 for the input molecule. Input: Cc1noc(C)c1-c1cnc2c(c1)c(-c1ccc(C(=O)O)cc1OCC(F)(F)F)cn2-c1ccccc1
1 to 8 µM

====

measured-on: Recombinant human BRD4 containing dual bromodomains (BRD4-BD12 (1-477)) (Homo sapiens, UniProt O60885)
Construct: Recombinant human BRD4 containing dual bromodomains (BRD4-BD12 (1-477))
experiment-summary: BRD4 Alphascreen binding assay
Give measured IC50 for each item. Keep answers brief.

Returns the measured IC50 for the input molecule. Input: CCOc1cc(C(=O)O)cc(OCC)c1-n1cc(C(O)(C2CC2)C2CC2)c2ncc(-c3c(C)noc3C)cc21
8 to 1000 µM

Returns the measured IC50 for the input molecule. Input: Cc1noc(C)c1-c1cnc2c(c1)c(-c1ccc(C(=O)O)c(F)c1)cn2C(c1ccccn1)C1CCCC1 (stereo not shown)
1 to 8 µM

Returns the measured IC50 for the input molecule. Input: Cc1noc(C)c1-c1cnc2c(CC3CCC3)cn(-c3ccc(C(=O)O)c(C#N)c3)c2c1
8 to 1000 µM

Returns the measured IC50 for the input molecule. Input: Cc1noc(C)c1-c1cnc2c(c1)c(-c1cccc(C(=O)O)c1)cn2Cc1ccccn1
8 to 1000 µM

Returns the measured IC50 for the input molecule. Input: Cc1noc(C)c1-c1cnc2c(CC3CCC3)cn(-c3ccc(O)nc3)c2c1
8 to 1000 µM

Returns the measured IC50 for the input molecule. Input: Cc1noc(C)c1-c1cnc2c(c1)c(-c1ccc(C#N)cc1)cn2C(c1ccccn1)C1CCCC1 (stereo not shown)
8 to 1000 µM

Returns the measured IC50 for the input molecule. Input: Cc1noc(C)c1-c1cnc2c(CC3CCC3)cn(-c3ccc(C#N)c(C(=O)O)c3)c2c1
8 to 1000 µM

Returns the measured IC50 for the input molecule. Input: COc1c(C(=O)O)cccc1-c1cn(C(C)c2ccccc2)c2cc(-c3c(C)noc3C)cnc12 (stereo not shown)
0.0001 to 1 µM

Returns the measured IC50 for the input molecule. Input: CCOc1cc(C(=O)O)cc(OCC)c1-n1cc(-c2cnn(C(F)F)c2)c2ncc(-c3c(C)noc3C)cc21
1 to 8 µM

Returns the measured IC50 for the input molecule. Input: Cc1noc(C)c1-c1cnc2c(c1)c(-c1ccc(C(=O)O)cc1)cn2[C@@H](C)c1ccccn1
8 to 1000 µM

Returns the measured IC50 for the input molecule. Input: Cc1noc(C)c1-c1cnc2c(c1)c(-c1ccc(C(=O)O)cc1OCC(F)F)cn2-c1ccccc1
1 to 8 µM

Returns the measured IC50 for the input molecule. Input: Cc1noc(C)c1-c1cnc2c(c1)c(-c1cnn(CC(=O)O)c1)cn2C(C1CC1)C1CC1
8 to 1000 µM

Returns the measured IC50 for the input molecule. Input: Cc1noc(C)c1-c1cnc2c(c1)c(-c1ccc(F)c(C(=O)O)c1)cn2C(c1ccccn1)C1CCCC1 (stereo not shown)
1 to 8 µM

Returns the measured IC50 for the input molecule. Input: CCOc1cc(C(=O)O)nc(OCC)c1-c1cn(C2CCOCC2)c2ncc(-c3c(C)noc3C)cc12
8 to 1000 µM

Returns the measured IC50 for the input molecule. Input: Cc1noc(C)c1-c1cnc2c(c1)c(-c1ccc(C(=O)O)cc1OC(F)(F)F)cn2-c1ncccc1F
1 to 8 µM

Returns the measured IC50 for the input molecule. Input: CCOc1cc(C(=O)O)c(F)cc1-c1cn(C2CCN(CCC#N)CC2)c2ncc(-c3c(C)noc3C)cc12
8 to 1000 µM
